target desc: Recombinant human PARP (Homo sapiens, UniProt P09874)
Sequence (P09874 whole entry): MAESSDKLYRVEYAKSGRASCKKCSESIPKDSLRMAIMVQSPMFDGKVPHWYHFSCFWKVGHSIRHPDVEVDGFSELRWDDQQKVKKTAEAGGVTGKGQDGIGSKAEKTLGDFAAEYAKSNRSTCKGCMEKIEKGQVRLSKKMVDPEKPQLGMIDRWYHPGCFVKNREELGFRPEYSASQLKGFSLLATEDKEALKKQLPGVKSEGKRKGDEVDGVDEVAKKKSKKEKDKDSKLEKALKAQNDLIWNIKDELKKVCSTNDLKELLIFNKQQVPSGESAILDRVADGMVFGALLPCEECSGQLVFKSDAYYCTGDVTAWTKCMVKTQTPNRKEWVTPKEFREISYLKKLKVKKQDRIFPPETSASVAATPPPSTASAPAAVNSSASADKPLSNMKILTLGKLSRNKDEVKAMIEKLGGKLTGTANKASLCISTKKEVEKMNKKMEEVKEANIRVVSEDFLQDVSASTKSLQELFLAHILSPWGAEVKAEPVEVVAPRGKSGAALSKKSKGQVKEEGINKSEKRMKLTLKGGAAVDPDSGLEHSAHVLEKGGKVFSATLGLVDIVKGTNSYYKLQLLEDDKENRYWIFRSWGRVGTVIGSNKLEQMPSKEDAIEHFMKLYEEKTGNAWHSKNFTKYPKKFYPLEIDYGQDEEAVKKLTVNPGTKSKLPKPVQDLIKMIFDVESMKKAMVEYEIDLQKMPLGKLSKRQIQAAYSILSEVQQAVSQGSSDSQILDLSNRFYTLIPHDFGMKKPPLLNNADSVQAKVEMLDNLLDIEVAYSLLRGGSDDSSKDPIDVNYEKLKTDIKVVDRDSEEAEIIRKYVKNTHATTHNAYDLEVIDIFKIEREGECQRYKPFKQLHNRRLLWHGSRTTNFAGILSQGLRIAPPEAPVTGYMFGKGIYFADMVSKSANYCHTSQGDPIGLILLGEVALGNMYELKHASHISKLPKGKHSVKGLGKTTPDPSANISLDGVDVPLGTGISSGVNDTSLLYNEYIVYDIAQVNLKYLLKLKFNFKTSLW
test method notes: PARP enzyme activity inhibitory action
recorded conditions: PARP inhibitory activity IC50 (nM), 3H-NAD, activated DNA, 25° C. 15 min; average of 3 measurements
Counter-ions that a name gives are not always drawn.
quantity name: IC50 (nM)

# compound, IC50, nM
rows = [
    ("Cc1cccc2c(=O)[nH]c(C3CN4CCC3CC4)nc12 (stereo not shown) [Example 138]", 58),
    ("CN1CCC(c2cc3c(F)cccc3c(=O)[nH]2)CC1 [Example 106]", 40),
    ("CN1CCC(c2cc3c(O)cccc3c(=O)[nH]2)CC1 [Example 108]", 12),
    ("Cc1cccc2c(=O)[nH]c(C3CCNCC3)cc12 [Example 93, hydrochloride]", 44),
]

---

test method notes: Stability test in 0.1 mol/L aqueous citric acid solution (HPLC residual ratio)
Type: physicochemical
recorded conditions: 5 mg in 1 ml 0.1 mol/L aqueous citric acid, room temperature, under shading, 1 day
quantity name: residual ratio (%) under shading 1 day later

# molecule, experimental value
measured = [
    ("Cc1cccc2c(=O)[nH]c(C3CCN(C)CC3)nc12 [Example 121]", "≈100%"),
    ("CN1CCC(c2cc3ccccc3c(=O)[nH]2)CC1 [Example 82]", "≈100%"),
    ("CN1CCN(c2cc3ccccc3c(=O)[nH]2)CC1 [Example Y-3011, reference compound]", "76%"),
    ("CN1CCC(c2cc3c(O)cccc3c(=O)[nH]2)CC1 [Example 108]", "≈100%"),
]

---

quantity name: melting point

Known results for molecules:
# molecule, melting point
records = [
    ("O=c1[nH]c(N2CCCC(CO)C2)cc2ccccc12 (centres unmarked)", "143 to 144 °C"),
    ("O=c1[nH]c(CCCN2CCCC2)cc2c(O)cccc12", "222 to 225 °C"),
    ("Cc1cccc2c(=O)[nH]c(N3CCN(CCCCN4CCN(C)CC4)CC3)cc12", "202 to 203 °C (dec.)"),
    ("CS(=O)(=O)N1CCN(c2cc3ccccc3c(=O)[nH]2)CC1", "257 to 259 °C (dec.)"),
]

Please turn your attention to the following entry.
Entry under test: O=c1[nH]c(CCCN2CCCC2)cc2ccccc12 . Its melting point was 117 to 119 °C

---

quantity name: melting point

Known results for compounds:
# compound, melting point
data = [
    ("CN1CCC(C2Cc3c(O)cccc3C(=O)N2)CC1 (stereo not drawn)", "216 to 218 °C"),
    ("CCOC(=O)C1CN(c2cc3ccccc3c(=O)[nH]2)CCN1C (stereo not drawn)", "105 to 109 °C"),
    ("Cc1cccc2cc(N3CCN(C)CC3)[nH]c(=O)c12", "224 to 225 °C (dec.)"),
    ("Cc1ccc(-c2c(C3CCN(C)CC3)[nH]c(=O)c3ccccc23)cc1", "244 to 246 °C"),
    ("CCCN1CCN(c2cc3ccccc3c(=O)[nH]2)CC1CO (stereo not drawn)", "152 to 154 °C"),
    ("Cc1cccc2cc(C3CCN(C)CC3)[nH]c(=O)c12", "200 to 202 °C"),
    ("O=c1[nH]c(N2CCN(CCCCN3CCCCC3)CC2)cc2c(Cl)cccc12", "172 to 173 °C (dec.)"),
    ("CN1CCN(c2cc3ccccc3c(=O)[nH]2)[C@H](CO)C1", "169 to 171 °C"),
]

Entry under test: CN1CCN(N2CC(=O)c3c(ccc4ccccc34)C2)CC1 . Its melting point was 253 to 254 °C (dec.)

Entry under test: CN1CCC(c2cc3ccc(O)cc3c(=O)[nH]2)CC1.Cl . Its melting point was 284 to 286 °C

---

target desc: Recombinant human PARP (Homo sapiens, UniProt P09874)
test method notes: PARP enzyme activity inhibitory action
recorded conditions: read-out: PARP inhibitory activity IC50; 3H-NAD, activated DNA, 25° C. 15 min; average of 3 measurements
quantity name: IC50 (nM)
The answer is to be given in nM; state only the numeric part.

Entry under test: O=C1NCCc2c(OCCCCN3CCCCC3)cccc21 [DPQ, reference compound] . Its IC50 was 1000

---

quantity name: melting point

Known results for compounds:
# compound, melting point
data = [
    ("CN1CCN(C(=O)c2cc3ccccc3c(=O)[nH]2)CC1", "170 to 172 °C"),
    ("COc1ccccc1-c1c(C2CCN(C)CC2)[nH]c(=O)c2ccccc12", "153 to 155 °C"),
    ("CC1CN(c2cc3ccccc3c(=O)[nH]2)CC(C)N1 (stereo not drawn)", "208 to 210 °C"),
    ("CN1CCN(c2cc3c(Cl)cccc3c(=O)[nH]2)CC1", "230 to 231 °C (dec.)"),
    ("Cc1cccc(-c2c(C3CCN(C)CC3)[nH]c(=O)c3ccccc23)c1", "214 to 216 °C"),
]

Entry under test: CN(C)CC1CCCN(c2cc3ccccc3c(=O)[nH]2)C1 (stereo not drawn) . Its melting point was 141 to 143 °C

Entry under test: CCCN1CCN(c2cc3ccccc3c(=O)[nH]2)CC1 . Its melting point was 208 to 209 °C (dec.)

---

melting point values, listed per item

Known results for compounds:
# compound, experimental value
data = [
    ("Cc1cccc2c(=O)[nH]c(CC3CN4CCC3CC4)nc12 (stereo not shown)", "187 to 188 °C (dec.)"),
    ("CN(C)C1CCN(c2cc3ccccc3c(=O)[nH]2)C1 (stereo not shown)", "233 to 234 °C (dec.)"),
    ("CN1CCC(c2[nH]c(=O)c3ccccc3c2-c2ccccc2)CC1", "258 to 260 °C (dec.)"),
]

Please turn your attention to the following entry.
Entry under test: COc1cccc(-c2c(C3CCN(C)CC3)[nH]c(=O)c3ccccc23)c1 . Its melting point was 181 to 183 °C

---

melting point values, listed per item

# compound, experimental value
records = [
    ("O=c1[nH]c(C2CCCN(Cc3ccccc3)C2)cc2ccccc12 (centres unmarked)", "176 to 178 °C"),
    ("CN1CCN(c2cc3c(Cl)cccc3c(=O)[nH]2)CC1CO (centres unmarked)", "212 to 214 °C"),
    ("CN(C)C1CCC(c2cc3ccccc3c(=O)[nH]2)CC1 (centres unmarked)", "256 to 258 °C"),
    ("CN1CCC(c2cc3c(F)cccc3c(=O)[nH]2)CC1", "220 to 222 °C"),
    ("CN1CCN(CCCc2cc3ccccc3c(=O)[nH]2)CC1", "120 to 122 °C"),
    ("Cc1ccc2cc(C3CCN(C)CC3)[nH]c(=O)c2c1", "239 to 241 °C"),
    ("Cc1cccc2c(=O)[nH]c(C3CCC(N(C)C)CC3)nc12 (centres unmarked)", "181 to 183 °C (dec.)"),
    ("CN(C)C1CCN(N2CC(=O)c3c(ccc4ccccc34)C2)CC1", "232 to 233 °C (dec.)"),
    ("Cc1ccccc1-c1c(C2CCN(C)CC2)[nH]c(=O)c2ccccc12", "249 to 251 °C"),
    ("Cc1ccc2c(=O)[nH]c(C3CCN(C)CC3)cc2c1", "236 to 238 °C"),
]

Please turn your attention to the following entry.
Entry under test: CN1CCC=C(c2cc3ccccc3c(=O)[nH]2)C1 . Its melting point was 214 to 216 °C

---

melting point values, listed per item

# molecule, melting point
measured = [
    ("CN1CCCC(c2cc3ccccc3c(=O)[nH]2)C1 (centres unmarked)", "155 to 156 °C"),
    ("COCOc1ccc2cc(C3CCN(C)CC3)[nH]c(=O)c2c1", "200 to 202 °C"),
    ("Cc1cccc2cc(N3CCN(CCO)CC3)[nH]c(=O)c12", "209 to 210 °C (dec.)"),
    ("Cc1ccc2c(=O)[nH]c(N3CCN(C)CC3)cc2c1", "242 to 243 °C (dec.)"),
    ("Cc1c(C2CCN(C)CC2)[nH]c(=O)c2ccccc12", "202 to 204 °C"),
    ("O=c1[nH]c(N2CCNC(CO)C2)cc2c(Br)cccc12 (centres unmarked)", "> 230 °C (dec.)"),
    ("CN1CCN(c2cc3c(F)cccc3c(=O)[nH]2)CC1CO (centres unmarked)", "216 to 217 °C"),
    ("CC(C)CN1CCN(c2cc3ccccc3c(=O)[nH]2)CC1CO (centres unmarked)", "130 to 132 °C"),
    ("Br.O=c1[nH]c(C2CCNCC2)cc2ccccc12", "> 270 °C"),
    ("CN1CCC(c2cc3c(N(C)C)cccc3c(=O)[nH]2)CC1", "216 to 218 °C"),
]

Entry under test: COc1ccc(-c2c(C3CCN(C)CC3)[nH]c(=O)c3ccccc23)cc1 . Its melting point was 209 to 211 °C

Entry under test: COc1cccc2c(=O)[nH]c(C3CCN(C)CC3)cc12 . Its melting point was 239 to 242 °C

Entry under test: CN(C)C(=O)C1CCCN(c2cc3ccccc3c(=O)[nH]2)C1 (centres unmarked) . Its melting point was 187 to 188 °C

Entry under test: O=c1[nH]c(N2CCN(CCCCN3CCCCC3)CC2)cc2ccc(Br)cc12 . Its melting point was 211 to 212 °C (dec.)
